logP reference
Respond using a number only.

Previously resolved entries follow.
> print(dat)
                           compound  reported.measurement
1  CN1CCN(CCn2cncc2[N+](=O)[O-])CC1                  -0.2
2              COc1cccc(OCCN(C)C)c1                  1.69

Briefly, logP measured for CS/C(C)=N/O : 1.12

Briefly, logP measured for NC(Cc1ccc(O)c(O)c1)C(=O)OCCc1ccc(Cl)cc1 (stereo unspecified) : 2.33

Briefly, logP measured for C=CC(N)CCC(=O)O (stereo unspecified) : -2.16

====

reported-metric: logP
Respond using a number only.

Previously resolved entries follow.
> print(dat)
                                   molecule  reported.measurement
1  ClC1(Cl)C2(Cl)C3(Cl)C4(Cl)C(Cl)(Cl)C5(Cl)C3(Cl)C1(Cl)C5(Cl)C24Cl (stereo unspecified)                  6.89
2  O=C1CCC(c2ccc[n+]([O-])c2)N1 (stereo unspecified)                 -1.01
3  ClC(Cl)(Cl)c1nc(NCc2ccccc2)nc(C(Cl)(Cl)Cl)n1                  4.93
4                          C=CC(=O)NCCN(C)C                 -0.25
5             CCOC(=O)[C@@H](N)Cc1ccc(O)cc1                  0.72

Attention now shifts to the item below.
Briefly, logP measured for CC(C)(C)C(O)C(Oc1ccc(Cl)cc1)n1cncn1 (stereo unspecified) : 2.9
